- EXPERIMENTAL_TARGET: N NTD-LKR (SARS-CoV-2, UniProt P0DTC9 44-247)
- PROTOCOL_SUMMARY: fluorescence polarization
MEASURED_PARAMETER: pKd
Note: pKd values are expressed as the negative base-10 logarithm of concentration in M.

Identify measured pKd corresponding to UUUCACCUCCCUUUCAGUUU (ssRNA) [20-nt ssRNA]
6.30
